Sourced from PubChem BioAssay (NCI)

test system: UACC-257 melanoma; experiment: NCI-60 one-dose screen, 48 h; conditions: 10 µM
Compounds without any hit were thinned out: in the full panel of roughly 83,000, 20% have a hit. The source made the active and inactive calls. How the source made its calls: active means growth percent below 10; inactive means the rest.
Just give me one of these, please: active, inactive

Examples with answers:
| MOLECULE | ASSAY_TARGET | CATEGORY |
| --- | --- | --- |
| C/C(=N\NC(=O)c1sc(=S)n(C)c1N)c1cc2ccccc2o1 | UACC-257 melanoma | inactive |
| COC(=O)[C@]12CC[C@@H](C)[C@H](C)[C@@H]1C1=CC[C@@H]3[C@@]4(C)C[C@@H](O)[C@H](O)[C@@](C)(CO)[C@@H]4[C@H](O)C[C@@]3(C)[C@]1(C)CC2 | UACC-257 melanoma | active |
| O/N=C1\CCC2CCCCC2C1 (centres undefined) | UACC-257 melanoma | inactive |
| COc1ccc(/C=C2\CCC3C(CCCC34OCCO4)C2=O)cc1 (centres undefined) | UACC-257 melanoma | inactive |
| COc1cccc(-c2nnc(COc3ccc(-c4nc5ccccc5[nH]4)cc3OC)o2)c1 | UACC-257 melanoma | inactive |
| O=C(COCc1c(-c2ccccc2)no[n+]1[O-])Nc1nc(-c2ccc(Cl)cc2)cs1 | UACC-257 melanoma | inactive |

Query molecule follows.
In this assay, the call recorded for `COc1cc(NS(C)(=O)=O)ccc1Nc1c2ccc(Cl)cc2nc2c(OC)cccc12` was what?
inactive

###

test system: RXF 393 renal; experiment: NCI-60 one-dose screen, 48 h (100 = growth as untreated, 0 = no growth, -100 = all killed); settings: 10 µM
Compounds without any hit were thinned out: in the full panel of roughly 83,000, 20% have a hit.
# Yes = growth below 70% (exclusive); No = growth at/above 70%

Examples with answers:
| COMPOUND | ASSAY_TARGET | CATEGORY |
| --- | --- | --- |
| CCOc1nc(-c2ccccc2)cc2c(O)c(C(=O)N/N=C/c3ccc(OC)cc3)[nH]c(=O)c12 | RXF 393 renal | Yes |
| CC(C)c1ncc(CO)n1Cc1c(Cl)cccc1Cl | RXF 393 renal | No |
| CCOC(=S)Sc1ccc([N+](=O)[O-])cc1[N+](=O)[O-] | RXF 393 renal | No |
| COc1ccc(-c2nc(NC(=O)CS(=O)(=O)c3ccc(F)cc3)sc2C)cc1 | RXF 393 renal | Yes |
| COc1cc(-c2c(C#N)c(N)n3c(nc4ccccc43)c2C#N)cc(Br)c1OC | RXF 393 renal | Yes |
| O=CNc1c(Cl)cc2c(c1Cl)Cc1cc([N+](=O)[O-])ccc1-2 | RXF 393 renal | No |
| NC1CCC(Nc2nc(NCc3ccc(-c4ccco4)nc3)c3ncn(C4CCCC4)c3n2)CC1 (stereo not given) | RXF 393 renal | Yes |
| CC(C)OCc1cc(CN2CCN(c3cccc(Cl)c3)CC2)c(O)c2ncccc12 | RXF 393 renal | Yes |

Report whether reported growth is lower than 70% (strictly) for `Cc1nc2ccc(-n3c(-c4ccc(Cl)cc4)nc4ccccc4c3=O)cc2n1Cc1ccccc1`
No

Report whether reported growth is lower than 70% (strictly) for `CCCCNC(=O)Oc1ccc(/C(=C(\C)c2ccc(OC)cc2)c2ccc(OCCN3CCCCC3)cc2)cc1`
Yes

###

tested on: SF-539 CNS; test: NCI-60 one-dose screen, 48 h (100 = growth as untreated, 0 = no growth, -100 = all killed); conditions: 10 µM
Compounds without any hit were thinned out: in the full panel of roughly 83,000, 20% have a hit.
Below: a set of entries, each annotated with reported growth.
Numeric only. Scale: %

Example entries and their recorded answers appear below.
| SMILES_DATA | growth (%) |
| --- | --- |
| N#CN1CC[C@H](C(=O)Nc2ncc(-c3ccncc3)s2)C1 | -20.7 |
| Clc1ccc(-c2nc(-c3cccs3)cn3ccnc23)cc1 | 76.7 |

Could you now consider this next compound?
Entry under review: `CC(=O)O[C@H]1CC[C@@]2(C)[C@@H](CC[C@@H]3[C@@H]2CC[C@]2(C)C=C(C=O)C[C@@H]32)C1` . Reported growth?
92.7

###

system: SW-620 colon; assay: NCI-60 one-dose screen, 48 h; conditions: 10 µM
This is part of a sample that, as a whole, favours compounds with a hit. Of some 83,000 tested, about 20% had one in any assay. Active and inactive are the calls of the source. Rule for the calls: active = growth percent below 10; inactive = the rest.
Just give me one of these, please: true (active), false (inactive)

| COMPOUND | ASSAY_TARGET | CATEGORY |
| --- | --- | --- |
| O=C(CCc1ccccc1)N1CCN(C(=O)CCc2ccccc2)CC1 | SW-620 colon | false |
| COC(=O)c1cnc2c(c1)Oc1ccccc1-c1ccnn1-2 | SW-620 colon | false |
| CCCCCCOc1ccc(/C=C/C(=O)c2ccc(B(O)O)cc2)cc1 | SW-620 colon | false |
| CC[C@@]1(C(N)=O)CC2C=CC1C2 (stereo not given in full) | SW-620 colon | false |
| CCCCCCCCCCCC(c1ccccc1)N(C)C (stereo not given) | SW-620 colon | false |

Query compound follows.
In this assay, the call recorded for `COc1ccc(-c2nc(-c3nc4ccc(OC)cc4[nH]3)c3ccccn23)cc1` was what?
false

###

Below: a set of entries, each annotated with reported growth.
tested on: SK-MEL-5 melanoma; assay: NCI-60 one-dose screen, 48 h (100 = growth as untreated, 0 = no growth, -100 = all killed); settings: 10 µM
About 83,000 compounds went through this panel and 20% of them were active in at least one assay; those are over-represented in the sample as a whole.
Numeric only. Scale: %

| MOLECULE | PROPERTY_NAME | ASSAY_VALUE |
| --- | --- | --- |
| O=C1CC[C@@H](C(=O)N[C@H]2CSSC[C@@H](C(=O)NCCc3ccccc3)NC(=O)[C@H](Cc3ccccc3)NC(=O)[C@@H]3CCCN3C(=O)[C@@H]3CCCN3C2=O)N1 | growth | 100 |
| N#Cc1ccc(-n2cnc(NC(=O)[C@H]3CCN(C#N)C3)c2)cc1 | growth | 12.1 |
| CCCCc1ccc(NC(=O)N(CCCl)N=O)cc1 | growth | 97.9 |
| COc1ccc(-c2[nH]ncc2/C=C/c2cc(C(F)(F)F)[nH]c(=O)n2)cc1 | growth | 93.7 |
| COc1cc(-c2nc3ccccc3[nH]2)ccc1OCc1nnc(-c2ccc(Br)cc2)o1 | growth | 75 |
| Nc1ccc(C2=CC(c3ccc(Cl)cc3)N3C=CSC3=N2)cc1 (stereo unspecified) | growth | -97.6 |
| Fc1ccc(-c2cc(C(Cl)Cl)no2)cc1 | growth | 94.3 |
| COc1ccc(C2CC(c3ccc(-c4ccccc4)cc3)=NN2c2ccc(S(N)(=O)=O)cc2)cc1 (stereo unspecified) | growth | 85.5 |
| CCOC(=O)C1=C(Nc2ccc(OC)cc2)C(N)=NC1=N | growth | 21.5 |
| CCC(O)c1ccc(Br)cc1NC(=O)c1cccc(Cl)c1 (stereo unspecified) | growth | 10.7 |

Entry under review: `O=C(CSc1nnc(-c2ccc(Cl)cc2)o1)c1ccccc1` . Reported growth?
91.7

Entry under review: `COc1cc(CSc2nc3ccc(Cl)cc3c(=O)n2-c2ccccc2)cc(OC)c1OC` . Reported growth?
81.3

###

system: SK-OV-3 ovarian; assay: NCI-60 one-dose screen, 48 h (100 = growth as untreated, 0 = no growth, -100 = all killed); details: 10 µM
About 83,000 compounds went through this panel and 20% of them were active in at least one assay; those are over-represented in the sample as a whole.
Below: a set of entries, each annotated with reported growth.
Numeric only. Scale: %

Example entries and their recorded answers appear below.
| MOLECULE | ASSAY_TARGET | growth / % |
| --- | --- | --- |
| CCN(CCCNC(=O)Cc1cc(=O)oc2cc(N(C)C)ccc12)CCNc1ccnc2cc(Cl)ccc12 | SK-OV-3 ovarian | 116 |
| CC(C)OP(=O)(O)c1ncc(-c2ccc(C(F)(F)F)cc2)c(NC2CCCCCC2)n1 | SK-OV-3 ovarian | 85.2 |
| CC1(C)CC(=O)c2c(nc3ccc(Cl)cc3c2-c2ccccc2)C1 | SK-OV-3 ovarian | 94.3 |
| COc1cc(Cl)cc(-c2nn(-c3cccc(NC(=O)Nc4cccc(C(F)(F)F)c4)c3)cc2-c2ccncc2)c1 | SK-OV-3 ovarian | 14.2 |
| CCN(CC)CCOC(=O)c1ccc(NC(=O)Nc2cccc(Cl)c2)cc1 | SK-OV-3 ovarian | 102 |

Could you now consider this next molecule?
Look up growth with SK-OV-3 ovarian for this molecule: `O=C(/C=C/c1nnc2n(Cc3ccccc3)c(=O)c3c4c(sc3n12)CCCC4)c1ccccc1`
108
